Test system: PC-3 prostate
Assay: NCI tumour cell line growth inhibition, 48 h
Hi there, I'd appreciate the recorded TGI for every entry that follows.

- compound: "C=C(C)[C@H]1CC[C@@]23O[C@@H]2[C@@H](C[C@@]2(C)CC(=O)[C@H](CC(=O)C1)O2)OC(=O)[C@@]12CC[C@H](C(=C)C)CC(=O)C[C@H]4O[C@](C)(CC4=O)C[C@@H](OC3=O)[C@@H]1O2"
  TGI: "> 100 µM"
- compound: "CCN(CC)CCNc1ccc2ncn3c4ccc(OC)cc4c(=O)c1c23"
  TGI: "18.8 µM"

Go through the items and report each one's TGI.
1. COc1ccc(Cc2cc(Cc3ccc(OC)cc3)cc(Cc3ccc(OC)cc3)c2)cc1
2. COc1ccc2c(c1)C(=Nc1ccc(F)c(Cl)c1)c1c-2c(Nc2ccc(F)c(Cl)c2)nc2ccccc12
3. CN(C)c1ccc(C=Nc2ccc(-c3nc4ccccc4s3)cc2)cc1
4. Oc1ccc2c(=S)cc(-c3ccc(Br)cc3)oc2c1O
5. COC(=O)c1cc(CC2Cc3cc4c(cc3C2=O)CCC4)cc2c1CCC2 (stereo not given)
6. C=CCn1c2ccccc2c2c3c(c4c5ccccc5n(CC=C)c4c21)C(=O)N(O)C3=O

1: > 100 µM; 2: > 100 µM; 3: 71.5 µM; 4: 17.1 µM; 5: > 100 µM; 6: 25.3 µM

Go through the items and report each one's TGI.
1. CC(O)CNC(=O)Nc1c(C(F)(F)F)cc(-c2ccccc2)[nH]c1=O (stereo not given)
2. COCn1cc(C2=C(C)C(=O)C(C)=C(C)C2=O)cn1
3. [N-]=[N+]=NC1C(O)C(CO)OC1n1ccc(N)nc1=O (stereo not given)

["> 100 µM", "> 100 µM", "> 625 µM"]

Go through the items and report each one's TGI.
1. CCOP(=O)(C/C=C/Cn1ncc(=O)[nH]c1=O)OCC
2. O=C(Oc1ccccc1)N(c1ccccc1)c1ccccc1

> 100 µM
> 100 µM

Go through the items and report each one's TGI.
1. O=C(O)CCC(c1ccccc1)(c1ccccc1)c1ccccc1
2. C[N+](C)(C)CC(=O)N/N=C(\Cc1nc2ccc([N+](=O)[O-])cc2[nH]c1=O)C(=O)Nc1nc2ccc([N+](=O)[O-])cc2s1
3. COc1ccccc1-n1nnc2c(N)nc(N)nc21
4. c1ccc(-c2[nH]ncc2-c2ccnc(-c3ccc(OCCN4CCOCC4)cc3)c2)nc1
5. CN1CCN(c2cc3nc(-c4ccc(Cl)cc4)[nH]c3cc2F)CC1
6. CCOC(=O)c1ncn(CCc2ccc(Cl)cc2)c1C
7. CC(=O)OCC1(C)C(O)CCC2(C)C1CCC1CC3CC12CCC3(O)CO (stereo not given)

["> 100 µM", "> 100 µM", "> 100 µM", "> 25 µM", "40.8 µM", "> 100 µM", "> 100 µM"]

Provenance of the data: PubChem BioAssay (NCI)
